Source listed as ChEMBL document CHEMBL3994613.

# Tested on: Staphylococcus aureus
# procedure_summary: Bactericidal activity against methicillin-resistant Staphylococcus aureus USA300 after 18 to 20 hrs by microdilution method
# Assay type: functional
Please use the following MBC ranges when assigning a class: low interval (below 8 µg/mL), middle interval (8 µg/mL to below 30 µg/mL), high interval (30 µg/mL or more)

Examples from the recorded data:
{"item_smiles": "CC(=O)OCC(=O)N(/N=N/c1ccc([N+](=O)[O-])cc1Br)c1ccc([N+](=O)[O-])cc1Br", "class": "middle interval"}
{"item_smiles": "CC(=O)N(/N=N/c1ccc([N+](=O)[O-])cc1C(F)(F)F)c1ccc([N+](=O)[O-])cc1C(F)(F)F", "class": "low interval"}
{"item_smiles": "O=C(c1ccncc1)N(/N=N/c1ccc([N+](=O)[O-])cc1)c1ccc([N+](=O)[O-])cc1", "class": "high interval"}
{"item_smiles": "O=C(c1ccccc1F)N(/N=N/c1ccc([N+](=O)[O-])cc1C(F)(F)F)c1ccc([N+](=O)[O-])cc1C(F)(F)F", "class": "low interval"}
{"item_smiles": "O=C(c1ccncc1)N(/N=N/c1ccc([N+](=O)[O-])cc1Br)c1ccc([N+](=O)[O-])cc1Br", "class": "high interval"}

Which class holds O=C(CCl)N(/N=N/c1ccc([N+](=O)[O-])cc1C(F)(F)F)c1ccc([N+](=O)[O-])cc1C(F)(F)F ?
low interval

Which class holds O=C(CCl)N(/N=N/c1ccc(Cl)cc1C(F)(F)F)c1ccc(Cl)cc1C(F)(F)F ?
high interval

Which class holds O=C(c1cccnc1)N(/N=N/c1ccc([N+](=O)[O-])cc1F)c1ccc([N+](=O)[O-])cc1F ?
high interval

Which class holds O=C(c1ccncc1)N(/N=N/c1ccc([N+](=O)[O-])cc1Cl)c1ccc([N+](=O)[O-])cc1Cl ?
middle interval

Which class holds O=C(c1cccnc1)N(/N=N/c1ccc([N+](=O)[O-])cc1Br)c1ccc([N+](=O)[O-])cc1Br ?
high interval

Which class holds FC(F)(F)c1cc(Cl)ccc1/N=N/Nc1ccc(Cl)cc1C(F)(F)F ?
low interval

Which class holds O=C(c1ccncc1)N(/N=N/c1ccc([N+](=O)[O-])cc1F)c1ccc([N+](=O)[O-])cc1F ?
high interval

Which class holds O=C(c1cccc(F)c1)N(/N=N/c1ccc([N+](=O)[O-])cc1Cl)c1ccc([N+](=O)[O-])cc1Cl ?
middle interval

Which class holds O=C(CCl)N(/N=N/c1ccc(C(F)(F)F)cc1C(F)(F)F)c1ccc(C(F)(F)F)cc1C(F)(F)F ?
high interval

* * *

# Tested on: Staphylococcus aureus
# procedure_summary: Bactericidal activity against methicillin-resistant Staphylococcus aureus USA300 after 18 to 20 hrs by microdilution method
# Type: functional
Decide using MBC alone. Strictly below 4 µg/mL: 1. Equal to or above 4 µg/mL: 0.

Examples from the recorded data:
{"item_smiles": "O=C(c1cccnc1)N(/N=N/c1ccc([N+](=O)[O-])cc1)c1ccc([N+](=O)[O-])cc1", "class": 0}
{"item_smiles": "O=C(c1ccccc1)N(/N=N/c1ccc([N+](=O)[O-])cc1Cl)c1ccc([N+](=O)[O-])cc1Cl", "class": 0}

Just wondering, is MBC of O=C(c1cccc(C(F)(F)F)c1)N(/N=N/c1ccc([N+](=O)[O-])cc1Br)c1ccc([N+](=O)[O-])cc1Br below 4 µg/mL?
0

Just wondering, is MBC of O=C(c1ccncc1)N(/N=N/c1ccc([N+](=O)[O-])c(C(F)(F)F)c1)c1ccc([N+](=O)[O-])c(C(F)(F)F)c1 below 4 µg/mL?
1

Just wondering, is MBC of COC(=O)N(/N=N/c1ccc([N+](=O)[O-])cc1Cl)c1ccc([N+](=O)[O-])cc1Cl below 4 µg/mL?
0

Just wondering, is MBC of O=C(c1cccnc1)N(/N=N/c1ccc([N+](=O)[O-])cc1Cl)c1ccc([N+](=O)[O-])cc1Cl below 4 µg/mL?
0
